Target: Neutrophil collagenase (Homo sapiens)
Sequence (P22894 whole entry): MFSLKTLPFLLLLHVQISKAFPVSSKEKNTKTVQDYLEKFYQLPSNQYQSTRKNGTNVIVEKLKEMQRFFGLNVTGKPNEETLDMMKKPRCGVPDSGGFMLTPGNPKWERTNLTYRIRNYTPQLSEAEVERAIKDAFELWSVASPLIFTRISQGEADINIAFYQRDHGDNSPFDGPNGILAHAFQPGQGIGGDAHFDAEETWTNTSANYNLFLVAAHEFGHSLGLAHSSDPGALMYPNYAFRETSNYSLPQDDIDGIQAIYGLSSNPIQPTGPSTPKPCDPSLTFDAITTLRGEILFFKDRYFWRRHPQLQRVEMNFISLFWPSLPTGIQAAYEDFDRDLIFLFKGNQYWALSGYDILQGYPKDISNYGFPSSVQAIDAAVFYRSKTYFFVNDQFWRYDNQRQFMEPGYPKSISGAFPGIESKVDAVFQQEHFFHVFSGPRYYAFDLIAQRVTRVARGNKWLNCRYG
Assay: Inhibition of Matrix metalloprotease-8 (MMP-8)
attributeMeasured: Ki

>>> df
                                   compound  attributemeasured  result
0  CNC(=O)[C@@H]1CCCN(C(=O)OC(C)(C)C)CCCCO[C@H](C(=O)NO)[C@@H](CCCc2ccccc2)C(=O)N1                 Ki   13 nM
1  CNC(=O)[C@@H]1CCCN(C(C)=O)CC(C)CO[C@H](C(=O)NO)[C@@H](CCCc2ccccc2)C(=O)N1 (stereo partly drawn)                 Ki    7 nM
2  CNC(=O)[C@@H]1CCCNCCCCO[C@H](C(=O)NO)[C@@H](CCCc2ccccc2)C(=O)N1                 Ki    4 nM
